Measured 2-SM Eggs: concentration at which 50% mortality occurs accompanies every entry in the list below.
System: Two-spotted Mite (2-SM) Tetranychus urticae (Koch) eggs
Experiment: Plant Dip Assay on Two-Spotted Mite, 2-SM Eggs
Type: in vivo
Details: infested Pinto Bean plants dipped 2-3 seconds, mortality after seven days, nymphs hatching from eggs

- N#CSCSC(=S)OCCSc1ccc2ccccc2c1: > .05%
- COCCOC(=S)SCSC#N: .01%
- N#CSCSC(=S)OCCSc1ccccc1: > .05%

-- ask Item under review: `Cc1ccc(OCCOC(=S)SCSC#N)cc1` . Reported 2-SM Eggs: concentration at which 50% mortality occurs?
-- reply > .05%

-- ask Item under review: `N#CSCSC(=S)OCCOc1ccc(Cl)cc1` . Reported 2-SM Eggs: concentration at which 50% mortality occurs?
-- reply > .05%

-- ask Item under review: `Cc1ccc(SCCOC(=S)SCSC#N)cc1` . Reported 2-SM Eggs: concentration at which 50% mortality occurs?
-- reply > .05%

###

Tested on: Pencillium italicum
Assay: In Vitro Agar Screening Tests (Example 5)
Assay type: cell-based
Details: Penicillium italicum; P. italicum, potato dextrose, 30° C; partial control at this concentration; read-out: Minimum Inhibitory Concentration
experimental.readout: MIC

* N#CSCSC(=S)OCCSc1ccc(Cl)cc1 | 1 µg/mL

-- ask Item under review: `COc1ccc(OCCOC(=S)SCSC#N)cc1` . Reported MIC?
-- reply 0.25 µg/mL

-- ask Item under review: `Cc1ccc(SCCOC(=S)SCSC#N)cc1` . Reported MIC?
-- reply 0.5 µg/mL

-- ask Item under review: `Cc1ccccc1OCCOC(=S)SCSC#N` . Reported MIC?
-- reply 0.125 µg/mL

-- ask Item under review: `N#CSCSC(=S)OCCOc1ccc(Cl)cc1` . Reported MIC?
-- reply 0.5 µg/mL

###

Measured MIC accompanies every entry in the list below.
Tested on: Escherichia coli
Assay: In Vitro Agar Screening Tests (Example 5)
Type: cell-based
Conditions: E. coli, nutrient agar, 37° C, read-out: Minimum Inhibitory Concentration
Method: This test measures the bactericidal and fungicidal properties of a compound when in contact with growing bacteria or fungi in an artificial medium. The test is conducted by adding 20 ml. portions of a suitable warm sterile agar solution into 20 × 100 Petri dishes. Then, the test compound, in 0.5% acetone solution, is added to the Petri dishes at levels of 1, 5, 10 and 50 ug/ml. and mixed with the warm mobile agar solution. […]
Please give a number only; it is taken to be in µg/mL.

Consider the reported MIC for these molecules:
- CCCCOCCOC(=S)SCSC#N: 50
- COc1ccc(OCCOC(=S)SCSC#N)cc1: 25
- COCCOC(=S)SCSC#N: 50

Here is another molecule to look at.
-- ask Hi! What's the reported MIC for `CCSCCOC(=S)SCSC#N` on Escherichia coli?
-- reply 50

###

Measured 2-SM PE: concentration at which 50% mortality occurs accompanies every entry in the list below.
System: Two-spotted Mite (2-SM) Tetranychus urticae (Koch)
Experiment: Plant Dip Assay on Two-Spotted Mite, 2-SM PE
Type: in vivo
Conditions: infested Pinto Bean plants dipped 2-3 seconds, mortality after seven days, adult mites

* N#CSCSC(=S)OCCSc1ccccc1 [Compound 9] | > .05%

-- ask Item under review: N#CSCSC(=S)OCCSc1ccc(Cl)cc1 [Compound 14] . Reported 2-SM PE: concentration at which 50% mortality occurs?
-- reply .008%

-- ask Item under review: CCCCOCCOC(=S)SCSC#N [Compound 6] . Reported 2-SM PE: concentration at which 50% mortality occurs?
-- reply .03%

-- ask Item under review: N#CSCSC(=S)OCCOc1ccc(Cl)cc1 [Compound 13] . Reported 2-SM PE: concentration at which 50% mortality occurs?
-- reply > .05%

-- ask Item under review: CCCCOCCOCCOC(=S)SCSC#N [Compound 7] . Reported 2-SM PE: concentration at which 50% mortality occurs?
-- reply .03%

###

Measured 2-SM Eggs: concentration at which 50% mortality occurs accompanies every entry in the list below.
Tested on: Two-spotted Mite (2-SM) Tetranychus urticae (Koch) eggs
Assay: Plant Dip Assay on Two-Spotted Mite, 2-SM Eggs
Type: in vivo
Conditions: infested Pinto Bean plants dipped 2-3 seconds, mortality after seven days, nymphs hatching from eggs

• N#CSCSC(=S)OCCSc1ccc(Cl)cc1 = .003%
• Cc1ccccc1OCCOC(=S)SCSC#N = .03%

Here is another compound to look at.
-- ask Item under review: `COc1ccc(OCCOC(=S)SCSC#N)cc1` . Reported 2-SM Eggs: concentration at which 50% mortality occurs?
-- reply .05%
